Where do these numbers come from? They come from patent US9931327B2.

tested on: LPS-induced TNF-α release in peripheral blood mononuclear cells (PBMCs); experiment: In vitro determination of PDE4 inhibitory activity in the PBMCs assay (LPS-induced TNF-α release); assay type: cell-based, human; conditions: PBMC; human PBMCs, LPS 3 ng/ml, 18 hours, TNF-α by ELISA; read-out: PDE4 inhibition (IC50, 50% inhibition of LPS-induced TNF-α release)
Each entry below carries its recorded IC50.
metric: IC50

INSERT INTO measurements (molecule, assayresult) VALUES
  ('CS(=O)(=O)Nc1cc(C(=O)N2CCC[C@H]2C(=O)O[C@@H](Cc2c(Cl)c[n+]([O-])cc2Cl)c2ccc(OC(F)F)c(OCC3CC3)c2)ccc1OCC1CC1', '1 to 10 nM'),
  ('N#Cc1ccccc1S(=O)(=O)N1CCS[C@H]1C(=O)O[C@@H](Cc1c(Cl)c[n+]([O-])cc1Cl)c1ccc(OC(F)F)c(OCC2CC2)c1', '0.1 to 1 nM'),
  ('CN(C)C(=O)c1ccc(S(=O)(=O)N2CCSC2C(=O)O[C@@H](Cc2c(Cl)c[n+]([O-])cc2Cl)c2ccc(OC(F)F)c(OCC3CC3)c2)cc1 (stereo partly drawn)', '0.1 to 1 nM'),
  ('Cc1noc(C)c1S(=O)(=O)N1CCSC1C(=O)O[C@@H](Cc1c(Cl)c[n+]([O-])cc1Cl)c1ccc(OC(F)F)c(OCC2CC2)c1 (stereo partly drawn)', '0.1 to 1 nM'),
  ('COc1cc(C)ccc1S(=O)(=O)N1CCS[C@H]1C(=O)O[C@@H](Cc1c(Cl)c[n+]([O-])cc1Cl)c1ccc(OC(F)F)c(OCC2CC2)c1', '< 0.1 nM'),
  ('Cn1cnc(S(=O)(=O)N2CCS[C@H]2C(=O)O[C@@H](Cc2c(Cl)c[n+]([O-])cc2Cl)c2ccc(OC(F)F)c(OCC3CC3)c2)c1', '< 0.1 nM');
